Test system: PC26
Experiment: qHTS profiling for inhibitors of Plasmodium falciparum proliferation (AID 504749); also: nearly all actives have a fitted effect of over 60% in size
Conditions: P. falciparum in erythrocytes, SYBR Green DNA, 72 h; series mostly up to 28.7 µM
Records with an inconclusive call do not appear. Calls of active or inactive are those of the source. Calls follow the shape of the dose curve; as a rule, active = well fitted inhibition curve with a large enough effect; inconclusive = small, poorly fitted or top-dose-only effect; inactive = flat fitted curve, though single readings scatter.
The reply should be one of these categories: class 1 = active, class 0 = inactive

Please review the entries below; each comes with its answer.
In [3]: df
Out[3]:
                                   compound  discrete_label
0  NS(=O)(=O)c1cc2c(cc1Cl)NC(C1CC3C=CC1C3)NS2(=O)=O (centres undefined)         class 0
1                         NCCCNCCSP(=O)(O)O         class 0
2  CCN(Cc1ccncc1)C(=O)C(CO)c1ccccc1 (centres undefined)         class 0
3          CCN(CC)CCNC(=O)c1ccc(NC(C)=O)cc1         class 0
4  CCN1CCC[C@H]1CNC(=O)c1c(O)c(Cl)cc(Cl)c1OC         class 0
5                  Cc1ccc(=O)n(-c2ccccc2)c1         class 0

Tell me the recorded outcome of this test for CCc1cccc(N(C)C(N)=Nc2cccc3ccccc23)c1 .
class 1

Answer briefly: the call reported for CCOC(=O)c1cnc2c(cnn2CC)c1NN=C(C)C in this assay.
class 0

For OCCN1CCN(CCCN2c3ccccc3C=Cc3ccccc32)CC1 , which call appears in the assay record?
class 1

----------
Test system: TAB165
Assay: qHTS profiling for inhibitors of Plasmodium falciparum proliferation (AID 504749); also: nearly all actives have a fitted effect of over 60% in size
Details: P. falciparum in erythrocytes, SYBR Green DNA, 72 h; series mostly up to 28.7 µM
Results filed as inconclusive are left out. Active and inactive are the calls of the source. Calls follow the shape of the dose curve; as a rule, active = well fitted inhibition curve with a large enough effect; inconclusive = small, poorly fitted or top-dose-only effect; inactive = flat fitted curve, though single readings scatter.
Use one of these outcomes when replying: active, inactive

Field: example entries. Status: answers known.
In [3]: df
Out[3]:
                                   compound  discrete_label
0  Nc1ncn([C@@H]2O[C@H](CO)[C@@H](O)[C@H]2O)c(=O)n1        inactive
1  COC(=O)C1=C(C)NC(C)=C(C(=O)OC(C)(C)CN(C)CCC(c2ccccc2)c2ccccc2)C1c1cccc([N+](=O)[O-])c1 (stereo not given)          active
2  CC(C)(Oc1ccc(CCNC(=O)c2ccc(Cl)cc2)cc1)C(=O)O        inactive

Dear all, I need the recorded test outcome for C[C@]12CCC(=O)C=C1CC[C@@H]1[C@@H]2CC[C@@]2(C)[C@H]1CC[C@]2(O)C(=O)CO , thank you.
inactive

Record lookup: outcome of this test for CN1CCN(CC(=O)N2c3ccccc3C(=O)Nc3cccnc32)CC1 ?
inactive

----------
Tested on: NIH3T3
Test: qHTS assay to identify novel small-molecules to repurpose for Merkel cell carcinoma treatment (AID 1296009); also: nearly all actives have a fitted effect of over 60% in size
Conditions: MCC and control cell lines, CellTiter-Glo viability, 72 h; at 44.8 µM (top of the series) unless noted
Inconclusive results are not listed. The source made the active and inactive calls. The call rests on the fitted dose curve; in most records, active means well fitted inhibition curve with a large enough effect; inconclusive means small, poorly fitted or top-dose-only effect; inactive means flat fitted curve, though single readings scatter.
measurement_kind: outcome

Sample answers from the record:
>>> print(df.to_string())
                                   compound  measurement_kind    result
0  CC(C)(Oc1ccc(CCNC(=O)c2ccc(Cl)cc2)cc1)C(=O)O           outcome  inactive
1                          O=C(O)CP(=O)(O)O           outcome  inactive
2                       O=C(O)CCCCCCCC(=O)O           outcome  inactive
3  CC(C)[N+](C)(CCOC(=O)C1c2ccccc2Oc2ccccc21)C(C)C           outcome  inactive
4  CCc1c(C)[nH]c2c1C(=O)C(CN1CCOCC1)CC2 (configuration not stated)           outcome  inactive

Quickly give me recorded outcome for OCCN1CCN(CCCN2c3ccccc3C=Cc3ccccc32)CC1
inactive

Output outcome of C[N+](C)(C)CCOC(=O)CCC(=O)OCC[N+](C)(C)C
inactive

In one line, give reported outcome of the entry CC(=O)Nc1nnc(S(N)(=O)=O)s1 .
inactive

Quick one: give measured outcome for COCCc1ccc(OCC(O)CNC(C)C)cc1 (configuration not stated)
inactive

Let me know recorded outcome for C[C@]12C=CC(=O)C=C1CC[C@H]1[C@@H]3C[C@@H](O)[C@](O)(C(=O)CO)[C@@]3(C)C[C@H](O)[C@@]12F , thanks.
inactive

Specify outcome for CCN(CC)CC(=O)Nc1c(C)cccc1C and stop.
inactive

Look up outcome of CN(C)C/C=C(/c1ccc(Br)cc1)c1cccnc1 and report it.
inactive

----------
System: MCC-26
Assay: qHTS assay to identify novel small-molecules to repurpose for Merkel cell carcinoma treatment (AID 1296009); also: nearly all actives have a fitted effect of over 60% in size
Conditions: MCC and control cell lines, CellTiter-Glo viability, 72 h; series mostly up to 46 µM
Results filed as inconclusive are left out. Active and inactive are the calls of the source. The call rests on the fitted dose curve; in most records, active means well fitted inhibition curve with a large enough effect; inconclusive means small, poorly fitted or top-dose-only effect; inactive means flat fitted curve, though single readings scatter.
Result category, one only: active, inactive

Solved cases (5 shown):
>>> df
                                   molecule  discrete_label
0  CC(C)(Oc1ccc(CCNC(=O)c2ccc(Cl)cc2)cc1)C(=O)O        inactive
1  CCCN(CCC)C(=O)C(CCC(=O)O)NC(=O)c1ccccc1 (stereo unspecified)        inactive
2                CNCCCN1c2ccccc2CCc2ccccc21        inactive
3  CN(C(=O)CCCOc1ccc2[nH]c(=O)ccc2c1)C1CCCCC1        inactive
4                NC(N)=N/N=C/c1c(Cl)cccc1Cl        inactive

Please share the test call associated with NC1=NCC2c3ccccc3Cc3ccccc3N12 (stereo unspecified) .
inactive

Which outcome was entered for the molecule CC1=NS(=O)(=O)c2cc(Cl)ccc2N1 in this test?
inactive

Which outcome did this test record for the molecule Cc1ccc(=O)n(-c2ccccc2)c1 ?
inactive

----------
Experiment: Natriuretic polypeptide receptor (hNpr1) antagonism - Pilot counterscreen GloSensor control cell line (AID 1347045); also: potency is read from the fitted curve at half-maximal effect
Conditions: HEK293 cGMP GloSensor cells, SNP-stimulated luminescence, 20 min; series mostly up to 38.3 µM
Source text: F. Fan, B. F. Binkowski, B. L. Butler, P. F. Stecha, M. K. Lewis, K. V. Wood, Novel genetically encoded biosensors using firefly luciferase. ACS Chem Biol 3, 346-351 (2008). PROTOCOL TABLE (as described by Inglese J, Shamu CE and Guy RK. 2007) […] 7. […] GloSensor baseline pre-read luminescence measured using CCD-based camera (Viewlux). […] 10. […] GloSensor post-SNP luminescence measured using CCD-based camera (Viewlux). […] 1. […] Cells counted with Invitrogen Countess (30,000,000 - 50,000,000 cells/flask). […]
Records with an inconclusive call do not appear. Calls of active or inactive are those of the source. Calls come from the whole dose curve.
measurement_kind: Potency

In [3]: df
Out[3]:
                                   compound            result
0  COC(=O)C1=C(C)NC(C)=C(C(=O)OCCN(C)Cc2ccccc2)C1c1cccc([N+](=O)[O-])c1 (stereo not drawn)  16.5 µM (active)
1  Fc1ccc(C(c2ccc(F)cc2)N2CCN(C/C=C/c3ccccc3)CC2)cc1          inactive
2  CNC1(C)C2CCC(C2)C1(C)C (stereo not drawn)          inactive

----------
Assay: qHTS assay for measurement of the activity of small molecule inhibitors on Zika virus induced Caspase-3 activity in human iPSC derived neural progenitor cells (hNPCs) (AID 1224857); also: % of control where 0% means no effect; nearly all actives have a fitted effect of over 65% in size
Conditions: hNPCs ZIKV-induced caspase-3/7, Caspase-Glo luminescence, 6 h; series mostly up to 45.7 µM
Results filed as inconclusive are left out. The source made the active and inactive calls. Calls come from the whole dose curve; as a rule, active = well fitted inhibition curve with a large enough effect; inconclusive = small, poorly fitted or top-dose-only effect; inactive = no such curve, though single readings can be large or run the other way.
measurement_kind: outcome

Would you please look over these solved cases?
>>> df
                                   compound  measurement_kind    result
0                CCN(CC)CC(=O)Nc1c(C)cccc1C           outcome  inactive
1  O=C(O)CN(CCN(CC(=O)O)CC(=O)O)CCN(CC(=O)O)CC(=O)O           outcome  inactive
2       COCCCC/C(=N\OCCN)c1ccc(C(F)(F)F)cc1           outcome  inactive
3  CC(C)(C)c1ccc(C(=O)CCCN2CCC(OC(c3ccccc3)c3ccccc3)CC2)cc1           outcome  inactive
4  C[C@]12C=CC(=O)C=C1CC[C@H]1[C@@H]3C[C@@H](O)[C@](O)(C(=O)CO)[C@@]3(C)C[C@H](O)[C@@]12F           outcome  inactive

Specify outcome for O=c1[nH]c(=O)n([C@H]2C[C@H](O)[C@@H](CO)O2)cc1Br and stop.
inactive

Tell me measured outcome for CN(C)CCCN1c2ccccc2Sc2ccc(C(F)(F)F)cc21 please.
inactive

Kindly indicate its recorded outcome. Item: COCCc1ccc(OCC(O)CNC(C)C)cc1 (centres undefined)
inactive

For the compound c1cnc(N2CCN(Cc3ccc4c(c3)OCO4)CC2)nc1 , give its reported outcome.
inactive

Annotate the compound Cc1nc2sccn2c(=O)c1CCN1CCC(=C(c2ccc(F)cc2)c2ccc(F)cc2)CC1 with its measured outcome.
inactive

Please look at this compound and report its outcome: OCCN1CCN(CCCN2c3ccccc3C=Cc3ccccc32)CC1
inactive

Provide measured outcome value, entry: O=C1NCN(c2ccccc2)C12CCN(CCCC(c1ccc(F)cc1)c1ccc(F)cc1)CC2
inactive

Supply measured outcome of CC(=O)[C@@]1(O)CC[C@H]2[C@@H]3CCC4=CC(=O)CC[C@]4(C)[C@H]3CC[C@@]21C in your reply.
inactive

Supply reported outcome belonging to this compound: CN1CCN(C2=Nc3ccccc3Oc3ccc(Cl)cc32)CC1
inactive

Recall and state the measured outcome for CNC1(C)C2CCC(C2)C1(C)C (centres undefined) .
inactive

Please indicate outcome recorded for CCc1c(C)[nH]c2c1C(=O)C(CN1CCOCC1)CC2 (centres undefined)
inactive
